Known speed of sound of a selection of molecules
condition.description: 311.4 K; 101.33 kPa; Liquid; Pulse-echo method
readout.name: speed of sound (m/s)

# molecule, result.number
rows = [
    ("CCCCC(=O)[O-].C[NH2+]CCO [2-hydroxy-N-methylethanaminium pentanoate]", 1507.6),
    ("CC(C)C(=O)[O-].C[NH2+]CCO [2-hydroxy-N-methylethanaminium isobutyrate]", 1573.9),
    ("C[NH2+]CCO.O=C[O-] [2-hydroxy-N-methylethanaminium formate]", 1789.5),
    ("CCCC(=O)[O-].C[NH2+]CCO [N-methyl-2-hydroxyethylammonium butanoate]", 1572.9),
    ("CCC(=O)[O-].C[NH2+]CCO [2-hydroxy-N-methylethanaminium propionate]", 1650.9),
]
